Data credit: PubChem BioAssay (NCI)

Tested on: HCT-116 colon
Assay: NCI tumour cell line growth inhibition, 48 h
Where a SMILES comes first, the peptide text is derived from it. The star is where a group is joined. Boc = CC(C)(C)OC(=O)*; OBn = c1ccc(CO*)cc1
Provide the recorded TGI for the entries that follow.

Below are worked cases with known answers.
Nc1ccc(-c2ccc(N)cc2I)c(I)c1
32 µM
COc1ccc(-c2c3c(nc4nc(SC)nc(SC)c24)CCCC3)cc1OC
> 100 µM

# per-item lookup of TGI; items listed below
1. CC1(C)OC(=O)C2(O1)C(=O)C1CCCCC12 (configuration not stated)
2. COC(=O)C1=C(C)NC(C)=C(C(=O)OC)C1c1cccc(NO)c1
3. CCOC(=O)C1(C/C=C\CBr)CCCCCCCCCCC1=O (configuration not stated)
4. CC(NC(=O)C(Cc1ccccc1)NC(=O)C(Cc1ccccc1)NC(=O)OC(C)(C)C)C(=O)OCc1ccccc1 (stereo not drawn) (Boc-Phe-Phe-Ala-OBn; configuration not given here)
5. O=C(NN1C(=O)CSC1c1ccc(C(F)(F)F)cc1)c1ccncc1 (configuration not stated)
6. NC(CCC(=O)O)(CCC(=O)O)CCC(=O)O
7. C1CCOC2(CCC3(CC2)OCCCCO3)OC1

OUT:
1: > 100 µM; 2: 26.4 µM; 3: > 54.2 µM; 4: > 100 µM; 5: > 100 µM; 6: > 100 µM; 7: > 100 µM

# per-item lookup of TGI; items listed below
1. CCCOC(=O)CCn1c(SC)nc2[nH]cc(-c3ccccc3)c2c1=O
2. CCOC(=O)C1=C(Nc2cccc3ccccc23)OC/C1=N\NC(=O)c1ccccc1O
3. C=C1CCC2[C@@H](CCC3[C@]2(C)CCC[C@]3(C)C(=O)OC)C1CCO (some centres not stated)
4. CC(C)(C#N)c1cc(C(=O)Nc2cc(Nc3ncccc3-c3ncnc4nc[nH]c34)ccc2F)cc(C(F)(F)F)c1

OUT:
1. 41 µM
2. > 69.6 µM
3. 19.2 µM
4. > 2.35 µM

# per-item lookup of TGI; items listed below
1. O=C1C(=C(I)I)c2ccccc2-c2ccccc21
2. O=C1NC2C=CN(Cc3ccccc3)C=C2C(=O)N2CCCC12 (configuration not stated)
3. O=C(/C=C/c1ccc(Cl)cc1)c1cccs1
4. Cc1ccc(-c2c(C#N)c(N)nc3c2CCS(=O)(=O)c2ccccc2-3)cc1

OUT:
1: 6.55 µM; 2: > 100 µM; 3: 33.8 µM; 4: > 100 µM

# per-item lookup of TGI; items listed below
1. O=C(OCCBr)c1ccc(Cl)c([N+](=O)[O-])c1
2. N=C(N)c1ccc(COc2ccccc2OCc2ccc(C(=N)N)cc2)cc1
3. O=C1/C(=C/c2c(Cl)[nH]c3ccccc23)c2ccccc2N1c1ccccc1
4. CCC(=O)N(O)C(C)(C)C
5. O=c1c2cn[nH]c2nc2scc(-c3ccc(Cl)cc3)n12

OUT:
["30.4 µM", "> 100 µM", "15.6 µM", "> 100 µM", "> 100 µM"]
